Data origin, for the record: paper PMC11995724

Test: in vitro
Conditions: human, hek293t cells
Reported Metric: viability at 48 h, 25 µM (%)

>>> measured_value("Cc1nnsc1CNC(=O)C(C)Cl (centres unmarked)")
89
>>> measured_value("CC(Cl)C(=O)N(C)Cc1nccn1Cc1ccccc1 (centres unmarked)")
91.5
>>> measured_value("C=CC(=O)NCc1cc(C2CC2)nn1C")
92.5
>>> measured_value("CC1=C(c2ccco2)CN(C(=O)CCl)CC1")
69.1
>>> measured_value("CC(Cl)C(=O)NC1CCCn2nccc21 (centres unmarked)")
113
>>> measured_value("C=CC(=O)NCC12CC3CC(CC(C3)C1)C2 [1-F17, N-[(adamantan-1-yl)methyl]prop-2-enamide]")
110
>>> measured_value("C=CC(=O)NCC(=O)Nc1ccc2c[nH]nc2c1")
89.7
>>> measured_value("Cc1cc(C)cc(-c2cc(NC(=O)CCl)n(-c3ccccc3)n2)c1")
-0.323
>>> measured_value("CC(C)NC(=O)C(C#N)=Cc1ccc2ccccc2c1")
77.9
>>> measured_value("C=CC(=O)N1CCN(C(C)c2nc(C)no2)CC1 (centres unmarked)")
61
>>> measured_value("CCc1ccc(OC(C)C(=O)N2CCN(C(=O)C(C)Cl)CC2)cc1 (centres unmarked)")
105
>>> measured_value("CC1CCCN1C(=O)CNC(=O)CCl (centres unmarked)")
83.6
>>> measured_value("O=C(O)c1csc(C(=O)CCl)c1")
91.8
>>> measured_value("O=C(CCl)NCCN1C(=O)SC(=Cc2ccccc2F)C1=O")
-0.106
>>> measured_value("Cc1cc(C(=O)CCl)c(C)n1-c1ccc(Cl)c(C(F)(F)F)c1")
0.747
>>> measured_value("C=CC(=O)NCCCn1cnc2ccccc21")
62
>>> measured_value("O=C(CCl)NCC1CN(Cc2ccccc2)CCO1 (centres unmarked)")
87.2
>>> measured_value("C=CC(=O)NC(Cc1ccccc1)c1ccccn1 (centres unmarked)")
113
>>> measured_value("Cc1ccc(NC(=O)CCl)c([N+](=O)[O-])c1")
2.99
>>> measured_value("CC(C)NS(=O)(=O)c1ccc(NC(=O)C(C)Cl)cc1 (centres unmarked)")
98.5
>>> measured_value("COC1CCC(N(Cc2cc(C)oc2C)C(=O)CCl)CC1 (centres unmarked)")
2.21
>>> measured_value("CC(Cl)C(=O)Nc1ccc2c(c1)OCCCO2 (centres unmarked)")
85.4
>>> measured_value("C=CC(=O)Nc1ccc2c(c1)CCO2")
87.8
>>> measured_value("O=C(CCl)NCC1CCN(C(=O)Cc2ccccc2)C1 (centres unmarked)")
0.975
>>> measured_value("C=CC(=O)N1CCC(Cn2cnnc2)CC1")
43.5
>>> measured_value("O=C(CCl)NC1CCN(Cc2ccccc2)C1 (centres unmarked)")
3.85
>>> measured_value("COc1ccc(C=C(C#N)C(=O)Nc2ccccc2OC)cc1O")
107
>>> measured_value("N#CC(=Cc1ccc(C#N)cc1)C(=O)Nc1ccccc1Cl")
131
>>> measured_value("Cc1cc(C(=O)CCl)c(C)[nH]1")
1.07
>>> measured_value("C=CC(=O)NCc1csc(C(C)(C)C)n1")
86.1
>>> measured_value("N#CCCSc1ccccc1NC(=O)CCl")
1.44
>>> measured_value("C=CC(=O)N1CCC(Cc2ccnn2C)CC1")
74.8
